As shown below, each of these compounds has a reported T/C value.
- Test system: CD2F1 mice, L1210 leukemia ip, survival T/C
- ASSAY EXPLANATION: NCI In Vivo Anticancer Drug Screen. Data for tumor model L1210 Leukemia (intraperitoneal) in CD2F1 (CDF1) mice
- CONDITION SUMMARY: endpoint: mean survival time; dose: 200.0 mg/kg/injection; schedule: Q04DX003 (ip); vehicle: saline with Tween-80; higher = longer survival
Toxic doses and inconclusive results are not listed.
RECORDED METRIC: T/C

                              line_notation      assay_result
0      CCn1c(-c2cccc(N)c2)cc(=O)n1-c1ccccc1   96 % of control
1                     O=C(O)C1(c2ccccc2)CC1   97 % of control
2  C/C(=N\O)c1ccc2c3c(ccc([N+](=O)[O-])c13)CC2   98 % of control
3             COc1cc2c(cc1OC)NC(=O)CC(=O)N2   91 % of control
4                   O=C(O)CNC(=O)COc1ccccc1   93 % of control
5                            NC(=S)NNC(N)=S  102 % of control
6            CN(C)C=Nc1ccc([N+](=O)[O-])cc1  101 % of control
